Measured log10 of IC50 by item
target: α-amylase; test: In vitro α-amylase inhibitory assay; conditions: read-out: The α-amylase activity: IC50 ± SD; DF = 100
Reported property: log10 of IC50 (log10 of the value in µM)

{"Compound": "CCOC(=O)c1ccc(NC(=O)c2cc3cc(S(N)(=O)=O)ccc3oc2=O)cc1 [Compound 9]", "Numeric result": 0.03}
{"Compound": "NS(=O)(=O)c1ccc2oc(=O)c(C(=O)Nc3ccc(Cl)cc3)cc2c1 [Compound 8]", "Numeric result": 0.63}
{"Compound": "CCOC(=O)c1cc2cc(S(N)(=O)=O)ccc2oc1=O [Compound 5]", "Numeric result": 1.51}
{"Compound": "N#Cc1cc2cc(S(N)(=O)=O)ccc2oc1=N [Compound 2]", "Numeric result": 0.25}
{"Compound": "CC(=O)c1cc2cc(S(N)(=O)=O)ccc2oc1=O [Compound 4, 3-Acetyl-2-oxo-2H-chromene-6-sulfonamide]", "Numeric result": 0.93}
